experiment: Stability of the compound at pH 1.2 at 5 uM assessed as compound remaining incubated for 1 hrs by LC-MS/MS analysis relative to control; assay type: physicochemical; conditions: buffer, read-out: Stability
quantity-measured: remaining at 1 h, 5 µM

molecule: O=C(C1CCCCC1)N1CC(=O)N2CCc3ccccc3C2C1 (configuration not stated) [PRAZIQUANTEL]
data-value: 93.1%

molecule: O=C(C1CCCCC1)N1CON2CCc3ccccc3C2C1 (configuration not stated)
data-value: 95.1%

* * *

assay: Stability of the compound in PBS at pH 7.4 at 5 uM assessed as compound remaining incubated for 5 hrs by LC-MS/MS analysis relative to control; format: physicochemical; conditions: read-out: Stability

compound: O=C(C1CCCCC1)N1CC(=O)N2CCc3ccccc3C2C1 (stereo unspecified)
remaining at 5 h, 5 µM: 100%
